- Test system: SK-MEL-2 melanoma
- Assay Summary: NCI tumour cell line growth inhibition, 48 h
Each entry below lists one item and its recorded TGI value.
Express it in µM; write the number only.

Below are worked cases with known answers.
[
  {
    "Compound": "COc1ccc(C(=O)OC2C=COC(C)C2OC(=O)c2ccc(OC)cc2)cc1 (configuration not stated)",
    "TGI, µM": 43.2
  },
  {
    "Compound": "CCOc1ccc(Nc2nc(-c3ccc4c(c3)NC(=O)CO4)cs2)cc1",
    "TGI, µM": 13.8
  },
  {
    "Compound": "C/C(=N/O)c1cccc(Nc2nc3ccc(Cl)cc3c3[nH]c4ccccc4c23)c1",
    "TGI, µM": 3.88
  },
  {
    "Compound": "O=C([O][Hg][CH2]C1COCC([CH2][Hg][O]C(=O)c2ccccc2)O1)c1ccccc1 (configuration not stated)",
    "TGI, µM": 29.6
  }
]

Now consider the entry below.
Exercise: Give a short answer stating reported TGI for O=C1c2cc([N+](=O)[O-])ccc2-c2cccc(F)c21 .
Solution: 55.7

---

- System: HOP-62 NSCLC
- Assay Summary: NCI tumour cell line growth inhibition, 48 h
Measured Property: TGI

Below are worked cases with known answers.
[
  {
    "Molecule": "CC1=NN(c2nc(N)nc(CSCc3nc(N)nc(N(C)C)n3)n2)C(C)(C)C1",
    "System": "HOP-62 NSCLC",
    "TGI": "> 100 µM"
  },
  {
    "Molecule": "O=C1C(=O)c2ccccc2C(O)=C1CN(CCCl)CCCl",
    "System": "HOP-62 NSCLC",
    "TGI": "> 100 µM"
  }
]

Exercise: Under HOP-62 NSCLC, report TGI for COC(=O)C(=O)C(C(=O)C(=O)Nc1ccccc1C(C)=O)c1nc2ccc(C(=O)c3ccccc3)cc2[nH]c1=O (stereo unspecified)
Solution: > 100 µM

Exercise: Under HOP-62 NSCLC, report TGI for CCCN1CN(C(C(=O)N[C@@H]2C(=O)N3C(C(=O)O)=C(C)CSC23)c2ccc(O)cc2)CSC1=S (stereo partly specified)
Solution: > 100 µM

Exercise: Under HOP-62 NSCLC, report TGI for Nc1ncn(C2C=C(CO)C(O)C2O)c(=O)n1 (stereo unspecified)
Solution: > 100 µM

Exercise: Under HOP-62 NSCLC, report TGI for CCCn1c(SCC)c2cc3cc4ccccc4cc3cc2c1-c1nc(F)nc(F)n1
Solution: > 100 µM

Exercise: Under HOP-62 NSCLC, report TGI for CCOC(=O)c1c(-c2ccc(O)c(OC)c2)c(C#N)c(=S)n(C2OC(COC(C)=O)C(OC(C)=O)C(OC(C)=O)C2OC(C)=O)c1-c1ccccc1 (stereo unspecified)
Solution: > 100 µM

Exercise: Under HOP-62 NSCLC, report TGI for Cc1cc(-c2nnc(N)nc2-c2ccc(F)cc2)cc(Cl)n1
Solution: > 100 µM

Exercise: Under HOP-62 NSCLC, report TGI for NC(=O)c1ccc2c(-c3ccnc(NCCCO)n3)c(-c3ccc(F)cc3)nn2c1
Solution: > 25 µM

Exercise: Under HOP-62 NSCLC, report TGI for C/C(=N/O)c1cccc(Nc2nc3ccc(Cl)cc3c3[nH]c4ccccc4c23)c1
Solution: 6.99 µM

Exercise: Under HOP-62 NSCLC, report TGI for COc1cc2c(cc1OCCCCCCN1CCN(c3ncnc4ccccc34)CC1)N=CC1CCCN1C2=O (stereo unspecified)
Solution: 3.82 µM
